Assay: NCI Yeast Anticancer Drug Screen. Data for the rad50 strain (AID 155);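 also: 0% = growth of vehicle-only cultures of the same strain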
Conditions: S. cerevisiae rad50 strain growth inhibition; at 50.0 µM; stronger effect = higher value
About 79,000 compounds went through this panel and 15% of them were active in at least one assay; those are over-represented in the sample as a whole.
growth inhibition overview

{"COMPOUND": "CC1(C)[C@H]2Cc3c(ccc4c3C(=O)OC4=O)[C@@H]1C2", "growth inhibition, %": 6.75}
{"COMPOUND": "Cc1cccc(CNc2ncnc3[nH]ncc23)c1", "growth inhibition, %": -15}
{"COMPOUND": "O=C(O)C(CO)c1ccccc1 (stereo unspecified)", "growth inhibition, %": 0.15}
{"COMPOUND": "C=CCC1(C)C=C(C)C(=O)C(C)=C1", "growth inhibition, %": -6.05}
{"COMPOUND": "Cc1ccc(NC(=S)Nc2cccc(C(F)(F)F)c2)cc1C", "growth inhibition, %": -11.9}
{"COMPOUND": "CC(=O)C(N)C(C)C (stereo unspecified)", "growth inhibition, %": 5.4}
{"COMPOUND": "COC(=O)CC[C@@H](NC(=O)C(C)NC(=O)COC1C(O)C(COC(=O)CCCCCCCCCCNC(=O)c2ccc([N+](=O)[O-])c3[nH]c4cc(Br)ccc4c(=O)c23)OC(OCc2ccccc2)C1NC(C)=O)C(N)=O (stereo partly specified)", "growth inhibition, %": -14.5}
{"COMPOUND": "NCc1ccc(C(=O)O)cc1", "growth inhibition, %": -30.2}
{"COMPOUND": "COc1ccc([N+](=O)[O-])cc1NS(=O)(=O)c1ccc(NC(C)=O)cc1", "growth inhibition, %": 1.6}
{"COMPOUND": "Nc1ncnc2c1ncn2C1OC(CO)C(NC(=O)C(N)CCC(=O)O)C1O (stereo unspecified)", "growth inhibition, %": 1.75}
{"COMPOUND": "COc1cc(C(=O)N2CCCCCCC2)cc(OC)c1OC", "growth inhibition, %": -13.8}
{"COMPOUND": "CC(NCCCNC(C)C(=O)O)C(=O)O (stereo unspecified)", "growth inhibition, %": 21.8}
{"COMPOUND": "C[C@@]12CCC[C@H]1[C@@H]1CCC3=CC(=O)CC[C@]3(C)[C@H]1CC2", "growth inhibition, %": 4.15}
{"COMPOUND": "Nc1ncnc2nc[nH]c12", "growth inhibition, %": -8.7}
{"COMPOUND": "O=C1OC(c2ccc([N+](=O)[O-])cc2)=N/C1=C\\c1cccc([N+](=O)[O-])c1", "growth inhibition, %": 23.1}
{"COMPOUND": "O=C(O)CCC1CC1C(=O)c1ccccc1 (stereo unspecified)", "growth inhibition, %": 15.2}
{"COMPOUND": "CC(=O)CC(=O)NC12CC3CC(CC(C3)C1)C2", "growth inhibition, %": -12.4}
{"COMPOUND": "CC(=O)OCC12C(OC(C)=O)C(=O)C3C(OC(C)=O)C14OC3(C)COC(=O)c1cccnc1C(C)C(C)C(=O)OC(C(OC(C)=O)C2OC(C)=O)C4(C)O (stereo unspecified)", "growth inhibition, %": -24.6}
{"COMPOUND": "O=C(NC1=C(Cl)C(=O)c2ccccc2C1=O)C(=O)c1c(O)c2ccccc2oc1=O", "growth inhibition, %": 83.5}
{"COMPOUND": "O=C(c1ccccc1)c1ccc(N2CCOCC2)cc1", "growth inhibition, %": -29.4}
{"COMPOUND": "COC(=O)C1OC1c1ccncc1 (stereo unspecified)", "growth inhibition, %": 19.1}
{"COMPOUND": "O=[N+]([O-])c1ccc(-n2cccc2)cc1", "growth inhibition, %": -0.55}
{"COMPOUND": "O=C1CCCCCCCS(=O)(=O)C1", "growth inhibition, %": -8.55}
{"COMPOUND": "NC(=S)N/N=C/c1cccc(CC(O)(C(F)(F)F)C(F)(F)F)n1", "growth inhibition, %": 2.6}
{"COMPOUND": "CCOC(=O)C(CC(CC(C(=O)OCC)C(=O)OCC)=C(C)C)C(=O)OCC", "growth inhibition, %": 36.1}
{"COMPOUND": "Clc1ccc(-c2nnc(-c3cccc4ccccc34)o2)cc1Cl", "growth inhibition, %": 10.1}
